Molecular target: neuronal nitric oxide synthase (Rattus norvegicus)
Construct: Enzyme was isolated from rat hippocampus or cerebellum
Sequence (P29476 whole entry): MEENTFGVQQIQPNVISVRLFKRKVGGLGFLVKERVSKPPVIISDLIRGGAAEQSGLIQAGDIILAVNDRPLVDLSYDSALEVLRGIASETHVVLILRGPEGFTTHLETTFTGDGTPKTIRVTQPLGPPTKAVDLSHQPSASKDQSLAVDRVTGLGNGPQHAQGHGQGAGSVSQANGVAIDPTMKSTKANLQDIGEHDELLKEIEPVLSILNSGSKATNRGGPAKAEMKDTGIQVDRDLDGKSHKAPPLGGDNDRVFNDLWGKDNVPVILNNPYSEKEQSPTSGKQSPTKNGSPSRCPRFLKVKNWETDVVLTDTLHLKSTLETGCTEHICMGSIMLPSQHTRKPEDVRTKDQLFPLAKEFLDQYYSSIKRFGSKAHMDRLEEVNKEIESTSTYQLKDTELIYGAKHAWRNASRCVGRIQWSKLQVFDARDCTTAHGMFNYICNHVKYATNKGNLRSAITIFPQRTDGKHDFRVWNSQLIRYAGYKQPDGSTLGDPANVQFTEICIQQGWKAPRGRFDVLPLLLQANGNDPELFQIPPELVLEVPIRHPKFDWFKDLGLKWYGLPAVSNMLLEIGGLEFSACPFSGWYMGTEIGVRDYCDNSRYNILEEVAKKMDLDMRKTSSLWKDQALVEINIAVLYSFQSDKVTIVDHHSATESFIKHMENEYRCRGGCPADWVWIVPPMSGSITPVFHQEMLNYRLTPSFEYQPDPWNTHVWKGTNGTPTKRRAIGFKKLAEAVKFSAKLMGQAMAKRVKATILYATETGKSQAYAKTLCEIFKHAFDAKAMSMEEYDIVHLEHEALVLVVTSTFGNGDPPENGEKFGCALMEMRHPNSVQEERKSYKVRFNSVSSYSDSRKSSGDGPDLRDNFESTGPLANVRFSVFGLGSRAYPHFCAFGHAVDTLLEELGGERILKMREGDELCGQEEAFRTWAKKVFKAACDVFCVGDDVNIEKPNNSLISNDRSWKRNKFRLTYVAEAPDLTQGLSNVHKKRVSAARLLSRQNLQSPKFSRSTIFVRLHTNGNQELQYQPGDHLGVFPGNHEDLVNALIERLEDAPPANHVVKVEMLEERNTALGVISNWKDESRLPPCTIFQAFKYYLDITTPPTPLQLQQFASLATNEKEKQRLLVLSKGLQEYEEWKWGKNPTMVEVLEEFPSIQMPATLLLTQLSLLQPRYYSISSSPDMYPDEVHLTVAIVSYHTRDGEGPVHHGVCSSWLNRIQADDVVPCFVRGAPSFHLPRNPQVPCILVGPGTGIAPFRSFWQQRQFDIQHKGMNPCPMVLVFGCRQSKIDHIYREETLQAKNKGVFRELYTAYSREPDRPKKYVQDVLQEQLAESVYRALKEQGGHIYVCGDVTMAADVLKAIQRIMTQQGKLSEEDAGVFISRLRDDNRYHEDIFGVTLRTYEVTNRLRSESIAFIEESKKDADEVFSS
Assay: Screen for neuronal nitric oxide synthase inhibiting activity (Screen A)
Details: Screen A, neuronal isoform, rat hippocampus or cerebellum supernatant
measurementLabel: IC50

Task: Form entry - test system: neuronal nitric oxide synthase (Rattus norvegicus); read-out: IC50; compound: CCSC(=N)Nc1ccc(CCN(C)Cc2ccccc2)cc1
Output: < 10 µM
